Entries and their MIC90
System: Mycobacterium tuberculosis
Assay details: Antitubercular activity against Mycobacterium tuberculosis SS2
Assay type: functional
Parameter measured: MIC90 (µg/mL)

> print(dat)
                                   compound  measurement.qualifier  measurement
1  CCCCn1cc(C(=O)OCC)c(=O)c2ccc3c(nnn3C)c21                      =          0.5
2       CCOC(=O)c1cn(C)c2c(ccc3c2nnn3C)c1=O                      =          0.5
3  Cc1ccc(Cn2cc(C(=O)O)c(=O)c3ccc4c(nnn4C)c32)cc1                      >           32

---

Entries and their MIC90
System: Mycobacterium tuberculosis
Assay details: Antitubercular activity against Mycobacterium tuberculosis SS1
Type: functional
Parameter measured: MIC90 (µg/mL)

> print(dat)
                                   compound  reading.unit  measurement.qualifier  measurement
1  CCOC(=O)c1cn(Cc2ccc(C)cc2)c2c(ccc3c2nnn3C)c1=O         µg/mL                      >           32
2       Cn1cc(C(=O)O)c(=O)c2ccc3c(nnn3C)c21         µg/mL                      =          0.5
3    C=CCn1cc(C(=O)O)c(=O)c2ccc3c(nnn3C)c21         µg/mL                      >           32
4  Cc1ccc(Cn2cc(C(=O)O)c(=O)c3ccc4c(nnn4C)c32)cc1         µg/mL                      >           32
5  Cn1nnc2c3c(ccc21)c(=O)c(C(=O)O)cn3CCc1ccccc1         µg/mL                      =          0.8
6  CCCCn1cc(C(=O)OCC)c(=O)c2ccc3c(nnn3C)c21         µg/mL                      =          0.5

---

Entries and their MIC90
Test system: Mycobacterium tuberculosis
Assay details: Antitubercular activity against Mycobacterium tuberculosis SS1
Assay type: functional
Parameter measured: MIC90

> print(dat)
                                   compound  parameter.measured  measurement
1    CCCCn1cc(C(=O)O)c(=O)c2ccc3c(nnn3C)c21               MIC90    > 32 mg/L
2  C=CCn1cc(C(=O)OCC)c(=O)c2ccc3c(nnn3C)c21               MIC90    > 32 mg/L
3      CCn1cc(C(=O)O)c(=O)c2ccc3c(nnn3C)c21               MIC90     1.6 mg/L

---

Entries and their MIC90
Test system: Mycobacterium tuberculosis
Assay details: Antitubercular activity against Mycobacterium tuberculosis SS2
Assay type: functional

Compound	MIC90
Cn1nnc2c3c(ccc21)c(=O)c(C(=O)O)cn3Cc1ccc(Br)cc1	> 32 µg/mL
CCCCn1cc(C(=O)O)c(=O)c2ccc3c(nnn3C)c21	> 32 µg/mL
CO[C@H]1/C=C/O[C@@]2(C)Oc3c(C)c(O)c4c(O)c(c(/C=N/N5CCN(C)CC5)c(O)c4c3C2=O)NC(=O)/C(C)=C\C=C\[C@H](C)[C@H](O)[C@@H](C)[C@@H](O)[C@@H](C)[C@H](OC(C)=O)[C@@H]1C	> 4 µg/mL
CCCn1cc(C(=O)O)c(=O)c2ccc3c(nnn3C)c21	1.6 µg/mL
C=CCn1cc(C(=O)O)c(=O)c2ccc3c(nnn3C)c21	> 32 µg/mL
CCOC(=O)c1cn(Cc2ccc(C)cc2)c2c(ccc3c2nnn3C)c1=O	> 32 µg/mL
CCOC(=O)c1cn(Cc2ccc(Br)cc2)c2c(ccc3c2nnn3C)c1=O	> 32 µg/mL
CCCn1cc(C(=O)OCC)c(=O)c2ccc3c(nnn3C)c21	> 32 µg/mL
CCOC(=O)c1cn(CCc2ccccc2)c2c(ccc3c2nnn3C)c1=O	> 32 µg/mL

---

Entries and their MIC90
Tested on: Mycobacterium tuberculosis
Assay details: Antitubercular activity against Mycobacterium tuberculosis SS3
Assay type: functional
Parameter measured: MIC90

> print(dat)
                                   compound                 test.system  parameter.measured  measurement
1  CCOC(=O)c1cn(Cc2ccccc2)c2c(ccc3c2nnn3C)c1=O  Mycobacterium tuberculosis               MIC90    > 32 mg/L
2    C=CCn1cc(C(=O)O)c(=O)c2ccc3c(nnn3C)c21  Mycobacterium tuberculosis               MIC90    > 32 mg/L
3  CCOC(=O)c1cn(CCc2ccccc2)c2c(ccc3c2nnn3C)c1=O  Mycobacterium tuberculosis               MIC90    > 32 mg/L
4   CCCn1cc(C(=O)OCC)c(=O)c2ccc3c(nnn3C)c21  Mycobacterium tuberculosis               MIC90    > 32 mg/L
5      CCn1cc(C(=O)O)c(=O)c2ccc3c(nnn3C)c21  Mycobacterium tuberculosis               MIC90     3.2 mg/L
6  Cn1nnc2c3c(ccc21)c(=O)c(C(=O)O)cn3Cc1ccccc1  Mycobacterium tuberculosis               MIC90    > 32 mg/L

---

Entries and their MIC90
Tested on: Mycobacterium tuberculosis
Assay details: Antitubercular activity against Mycobacterium tuberculosis SS2
Format: functional
Parameter measured: MIC90

> print(dat)
                                   compound  parameter.measured  measurement
1  Cn1nnc2c3c(ccc21)c(=O)c(C(=O)O)cn3Cc1ccccc1               MIC90   > 32 µg/mL
2  CCOC(=O)c1cn(Cc2ccccc2)c2c(ccc3c2nnn3C)c1=O               MIC90   > 32 µg/mL
3  C=CCn1cc(C(=O)OCC)c(=O)c2ccc3c(nnn3C)c21               MIC90   > 32 µg/mL

The reported numbers originate from ChEMBL document CHEMBL1146225.
